# background-corrected fluorescence per entry
Assay: background-corrected fluorescence of 3'-dye-labeled ssDNA relative to brightest sequence (3'-GCGCG) (fraction); higher = brighter dye fluorescence (less quenching)
Conditions: dye: Cy5 (3' terminal)
Simply state the number, no unit and no words.

Consider the worked cases shown below.
>  <SEQUENCE_RECORD>
TTTTTTGCTCATGCTGCGCATTTTTTTTTTTTTTTAGAAT [TAAGA]

>  <background-corrected fluorescence>
0.449

$$$$
>  <SEQUENCE_RECORD>
TTTTTGCATGATCATCATCATTTTTTTTTTTTTTTTCGGG [GGGCT]

>  <background-corrected fluorescence>
0.558

$$$$
>  <SEQUENCE_RECORD>
TTTTTTCATGCTGATCATCATTTTTTTTTTTTTTTGACGG [GGCAG]

>  <background-corrected fluorescence>
0.585

$$$$

Problem: # input sequence: TTTTTTGCTCATGCGCATGCTTTTTTTTTTTTTTTAGATA [ATAGA] ; wanted: its background-corrected fluorescence
Result: 0.434

The measurements presented in this section are drawn from the supplement of paper PMC9428881.
